# Tested on: CCRIS mutagenicity, Ames/micronucleus/aberration tests
# experimental.protocol: CCRIS mutagenicity studies
# particulars: Test System: AMES SALMONELLA TYPHIMURIUM; Strain/Indicator: TA100; Metabolic Activation: RAT, LIVER, S-9, AROCLOR 1254; Method: PREINCUBATION
Calls of active or inactive are those of the source. No rule for the calls is given here.
Result category, one only: active, inactive

{"molecule.smiles": "O=[N+]([O-])c1ccccc1CO", "classification": "inactive"}

input: Please let me know the test result on file for "COP(=O)(SC)SC" .
output: inactive

input: Then "O=C/C=C/c1ccc([N+](=O)[O-])cc1" ?
output: active

input: Then "Nc1nc(N)nc(N)n1" ?
output: inactive

====

# Tested on: CCRIS mutagenicity, Ames/micronucleus/aberration tests
# experimental.protocol: CCRIS mutagenicity studies
# particulars: Test System: AMES SALMONELLA TYPHIMURIUM; Strain/Indicator: YG1021; Metabolic Activation: RAT, LIVER, S-9, PCB; Method: PREINCUBATION
# Text: The CCRIS database contains chemical records with carcinogenicity, mutagenicity, tumor promotion, and tumor inhibition test results. It was developed by the National Cancer Institute (NCI). Data are derived from studies cited in primary journals, current awareness tools, NCI reports, and other sources. Test results have been reviewed by experts in carcinogenesis and mutagenesis. CCRIS provides historical information from the years 1985 - 2011. It is no longer updated. […]
Active and inactive are the calls of the source. The rule behind the calls is not given here.
Result category, one only: yes (1) (active), no (0) (inactive)

input: Please let me know the test result on file for "Nc1ncnc2nc(-c3ccc([N+](=O)[O-])cc3)[nH]c12" .
output: yes (1)

input: Then "O=[N+]([O-])c1ccc(CNc2ncnc3nc[nH]c23)cc1" ?
output: yes (1)

input: Then "Nc1nc(-c2ccc([N+](=O)[O-])cc2)nc2c1ncn2-c1ccc([N+](=O)[O-])cc1" ?
output: yes (1)

input: Then "O=[N+]([O-])c1ccc(Nc2ncnc3nc[nH]c23)cc1" ?
output: no (0)

====

# System: CCRIS mutagenicity, Ames/micronucleus/aberration tests
# experimental.protocol: CCRIS mutagenicity studies
# particulars: Test System: AMES SALMONELLA TYPHIMURIUM; Strain/Indicator: TA97A; Metabolic Activation: NONE; Method: PREINCUBATION
The source made the active and inactive calls. How the calls were made is not given here.
Result category, one only: active, inactive

{"molecule": "O=[N+]([O-])O", "classification": "inactive"}
{"molecule": "CC(=O)OC/C=C(C)/C=C/C=C(C)/C=C/C1=C(C)CCCC1(C)C", "classification": "inactive"}
{"molecule": "Cc1ccc2c(C)c3ccc4ccccc4c3nc2c1", "classification": "active"}
{"molecule": "O=C1C=Cc2c(ccc3cc4ccccc4cc23)C1=O", "classification": "inactive"}
{"molecule": "O=S1OCC2C(CO1)C1(Cl)C(Cl)=C(Cl)C2(Cl)C1(Cl)Cl (stereo not drawn)", "classification": "active"}

input: Please let me know the test result on file for C[C@@H]1Cc2c(Cl)cc(C(=O)NC(Cc3ccccc3)C(=O)O)c(O)c2C(=O)O1 (stereo partly drawn) .
output: inactive

input: Then "O=C(O)c1ccccc1" ?
output: inactive

input: Then "O=C1C(=O)c2ccccc2-c2ccccc21" ?
output: inactive
